target desc: Receptor-type tyrosine-protein kinase FLT3 (Homo sapiens, UniProt P36888)
Sequence (P36888 whole entry): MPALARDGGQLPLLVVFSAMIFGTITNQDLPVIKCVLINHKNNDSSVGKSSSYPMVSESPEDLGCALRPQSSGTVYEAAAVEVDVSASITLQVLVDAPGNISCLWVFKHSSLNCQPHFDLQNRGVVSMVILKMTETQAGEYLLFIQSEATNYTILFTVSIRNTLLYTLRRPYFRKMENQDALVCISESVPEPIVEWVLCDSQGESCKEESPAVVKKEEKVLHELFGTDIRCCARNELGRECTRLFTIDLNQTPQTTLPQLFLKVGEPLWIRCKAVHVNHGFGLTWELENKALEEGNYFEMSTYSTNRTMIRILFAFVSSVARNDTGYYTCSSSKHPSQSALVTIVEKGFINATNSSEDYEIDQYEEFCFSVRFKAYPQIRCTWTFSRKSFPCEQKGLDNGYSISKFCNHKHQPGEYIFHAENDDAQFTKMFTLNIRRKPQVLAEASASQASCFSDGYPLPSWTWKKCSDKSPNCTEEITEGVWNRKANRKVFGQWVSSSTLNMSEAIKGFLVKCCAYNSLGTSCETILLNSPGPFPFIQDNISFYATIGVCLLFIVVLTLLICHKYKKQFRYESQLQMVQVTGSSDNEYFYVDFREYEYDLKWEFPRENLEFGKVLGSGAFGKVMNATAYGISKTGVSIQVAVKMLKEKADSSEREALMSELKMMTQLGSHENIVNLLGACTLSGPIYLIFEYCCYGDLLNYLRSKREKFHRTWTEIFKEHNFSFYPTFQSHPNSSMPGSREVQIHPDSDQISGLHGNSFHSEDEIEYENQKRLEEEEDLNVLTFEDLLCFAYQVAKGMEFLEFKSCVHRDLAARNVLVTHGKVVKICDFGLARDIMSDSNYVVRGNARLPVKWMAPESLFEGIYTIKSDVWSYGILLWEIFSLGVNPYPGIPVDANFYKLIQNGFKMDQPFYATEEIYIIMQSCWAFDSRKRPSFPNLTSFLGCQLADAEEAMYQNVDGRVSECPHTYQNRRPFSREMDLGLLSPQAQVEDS
run description: Inhibition of wild type FLT3 (unknown origin) phosphorylation expressed in HEK293T cells preincubated for 1 hr followed by FLT3 ligand addition for 5 mins by Western blot analysis
Type: cell-based, HEK-293T
endpoint: IC50 (µM)
# number only, unit µM dropped from output

What IC50 value was documented for this compound, CCc1cc(NC(=O)Nc2ccc(-c3cnc(Nc4cc(N5CCN(CC)CC5)nc(C)n4)s3)cc2)no1 ?
0.01

----------
run description: Plasma clearance in Sprague-Dawley rat at 2 mg/kg, iv
Assay type: ADME, organism-based
endpoint: clearance (mL/min/kg)
# number only, unit mL/min/kg dropped from output

What clearance value was documented for this compound, CCc1cc(NC(=O)Nc2ccc(-c3cnc(Nc4cc(N5CCN(CC)CC5)nc(C)n4)s3)cc2)no1 ?
31.6

----------
run description: Plasma clearance in ICR mouse at 2 mg/kg, iv
Assay type: ADME, organism-based
endpoint: clearance (mL/min/kg)
# number only, unit mL/min/kg dropped from output

What clearance value was documented for this compound, CCc1cc(NC(=O)Nc2ccc(-c3cnc(Nc4cc(N5CCN(CC)CC5)nc(C)n4)s3)cc2)no1 ?
82

----------
run description: AUC (0 to infinity) in Sprague-Dawley rat at 10 mg/kg, po
Type: ADME, organism-based
Set-up: dose 10 mg/kg, time infinity, route oral
experimental conditions: in vivo
Listing of recorded AUC(0-inf) by entry.
# number only, unit ng·h/mL dropped from output

Examples with answers:
>>> endpoint_result("Cc1nc(Nc2ncc(-c3ccc(NC(=O)Nc4cc(C)on4)cc3)s2)cc(N2CCN(C)CC2)n1")
313
>>> endpoint_result("CCc1cc(NC(=O)Nc2ccc(-c3cnc(Nc4cc(N5CCN(C)CC5)nc(C)n4)s3)cc2)no1")
632
>>> endpoint_result("CCc1cc(NC(=O)Nc2ccc(-c3cnc(Nc4cc(N5CCN(CC)CC5)nc(C)n4)s3)cc2)no1")
1080

Kindly consider the entry below.
What AUC(0-inf) value was documented for this compound, CCN1CCN(c2cc(Nc3ncc(-c4ccc(NC(=O)OCc5ccccc5)cc4)s3)nc(C)n2)CC1 ?
66

----------
target desc: Vascular endothelial growth factor receptor 2 (Homo sapiens, UniProt P35968)
Sequence (P35968 whole entry): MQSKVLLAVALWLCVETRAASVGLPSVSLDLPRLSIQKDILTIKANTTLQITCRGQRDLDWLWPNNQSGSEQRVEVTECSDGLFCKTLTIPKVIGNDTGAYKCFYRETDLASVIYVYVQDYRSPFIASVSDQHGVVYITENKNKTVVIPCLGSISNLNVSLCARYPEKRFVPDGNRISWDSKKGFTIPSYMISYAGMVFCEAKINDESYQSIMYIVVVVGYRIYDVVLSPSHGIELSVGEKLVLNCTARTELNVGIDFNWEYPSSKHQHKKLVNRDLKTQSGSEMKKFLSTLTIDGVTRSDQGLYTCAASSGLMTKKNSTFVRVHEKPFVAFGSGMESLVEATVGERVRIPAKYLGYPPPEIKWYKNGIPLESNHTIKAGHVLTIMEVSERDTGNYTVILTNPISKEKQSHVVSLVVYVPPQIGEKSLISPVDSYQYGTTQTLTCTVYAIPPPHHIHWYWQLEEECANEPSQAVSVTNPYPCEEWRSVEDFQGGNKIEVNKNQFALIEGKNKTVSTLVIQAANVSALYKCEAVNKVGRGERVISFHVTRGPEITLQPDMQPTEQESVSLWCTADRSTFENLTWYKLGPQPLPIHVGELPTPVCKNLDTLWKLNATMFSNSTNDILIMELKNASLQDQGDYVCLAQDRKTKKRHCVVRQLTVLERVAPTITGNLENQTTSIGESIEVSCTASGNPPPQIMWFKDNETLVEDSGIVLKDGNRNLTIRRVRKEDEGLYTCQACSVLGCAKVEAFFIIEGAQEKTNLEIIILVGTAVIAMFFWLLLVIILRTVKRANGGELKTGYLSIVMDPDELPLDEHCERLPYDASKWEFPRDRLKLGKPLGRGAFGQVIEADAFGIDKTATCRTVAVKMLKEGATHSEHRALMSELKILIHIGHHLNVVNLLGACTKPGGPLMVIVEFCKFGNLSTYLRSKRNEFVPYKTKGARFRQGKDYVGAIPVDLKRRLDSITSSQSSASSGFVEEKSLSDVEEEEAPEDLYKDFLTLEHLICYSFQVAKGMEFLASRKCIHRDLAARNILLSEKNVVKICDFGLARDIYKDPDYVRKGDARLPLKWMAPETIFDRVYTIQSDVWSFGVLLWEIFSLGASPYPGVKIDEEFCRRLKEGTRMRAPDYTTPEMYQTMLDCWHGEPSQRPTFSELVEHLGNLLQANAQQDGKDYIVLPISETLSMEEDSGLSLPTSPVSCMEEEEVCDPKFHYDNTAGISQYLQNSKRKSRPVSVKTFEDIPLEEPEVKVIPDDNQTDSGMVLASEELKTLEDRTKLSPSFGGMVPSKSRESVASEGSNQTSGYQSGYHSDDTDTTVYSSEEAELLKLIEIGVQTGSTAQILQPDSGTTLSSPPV
run description: biochemical
Description: Inhibition of recombinant GST-tagged VEGFR2 kinase domain (V789 to V1356) (unknown origin) expressed in insect Sf9 cells using polyGlu4:Tyr peptide as substrate after 120 mins by Kinase-Glo assay
Listing of recorded log10 of IC50 by entry.
Use the decimal logarithm of IC50 (µM).

Examples with answers:
>>> endpoint_result("Cc1nc(Nc2ncc(-c3ccc(NC(=O)Nc4cc(C)on4)cc3)s2)cc(N2CCN(C)CC2)n1")
-1.82
>>> endpoint_result("CCN1CCN(c2cc(Nc3ncc(-c4ccc(NC(=O)Nc5cc(C6CC6)on5)cc4)s3)nc(C)n2)CC1")
-1.82

What log10 of IC50 value was documented for this compound, Cc1nc(Nc2ncc(-c3ccc(NC(=O)Nc4cccc(Cl)c4)cc3)s2)cc(N2CCNCC2)n1 ?
-1.51

Similarly, CCN1CCN(c2cc(Nc3ncc(-c4ccc(NS(=O)(=O)c5ccccc5)cc4)s3)nc(C)n2)CC1 ?
-0.77

Similarly, Cc1nc(Nc2ncc(-c3ccc(NC(=O)Nc4ccccc4)cc3)s2)cc(N2CCN(C)CC2)n1 ?
-0.80

Similarly, Cc1cc(NC(=O)Nc2ccc(-c3cnc(NC(=O)c4ccc(OCCN5CCOCC5)cc4)s3)cc2)no1 ?
-0.43

Similarly, CCCCc1cc(NC(=O)Nc2ccc(-c3cnc(Nc4cc(N5CCN(C)CC5)nc(C)n4)s3)cc2)no1 ?
-1.26

Similarly, CCN1CCN(c2cc(Nc3ncc(-c4ccc(NC(=O)OCc5ccccc5)cc4)s3)nc(C)n2)CC1 ?
-0.92
